# assay_system: AAK1 (full length human) in HEK293F cells (Homo sapiens, UniProt Q2M2I8)
# Construct: fused on or other part: HA tag (AAK1/HA in pIRES vector)
# Sequence (Q2M2I8 1-822 limits assumed): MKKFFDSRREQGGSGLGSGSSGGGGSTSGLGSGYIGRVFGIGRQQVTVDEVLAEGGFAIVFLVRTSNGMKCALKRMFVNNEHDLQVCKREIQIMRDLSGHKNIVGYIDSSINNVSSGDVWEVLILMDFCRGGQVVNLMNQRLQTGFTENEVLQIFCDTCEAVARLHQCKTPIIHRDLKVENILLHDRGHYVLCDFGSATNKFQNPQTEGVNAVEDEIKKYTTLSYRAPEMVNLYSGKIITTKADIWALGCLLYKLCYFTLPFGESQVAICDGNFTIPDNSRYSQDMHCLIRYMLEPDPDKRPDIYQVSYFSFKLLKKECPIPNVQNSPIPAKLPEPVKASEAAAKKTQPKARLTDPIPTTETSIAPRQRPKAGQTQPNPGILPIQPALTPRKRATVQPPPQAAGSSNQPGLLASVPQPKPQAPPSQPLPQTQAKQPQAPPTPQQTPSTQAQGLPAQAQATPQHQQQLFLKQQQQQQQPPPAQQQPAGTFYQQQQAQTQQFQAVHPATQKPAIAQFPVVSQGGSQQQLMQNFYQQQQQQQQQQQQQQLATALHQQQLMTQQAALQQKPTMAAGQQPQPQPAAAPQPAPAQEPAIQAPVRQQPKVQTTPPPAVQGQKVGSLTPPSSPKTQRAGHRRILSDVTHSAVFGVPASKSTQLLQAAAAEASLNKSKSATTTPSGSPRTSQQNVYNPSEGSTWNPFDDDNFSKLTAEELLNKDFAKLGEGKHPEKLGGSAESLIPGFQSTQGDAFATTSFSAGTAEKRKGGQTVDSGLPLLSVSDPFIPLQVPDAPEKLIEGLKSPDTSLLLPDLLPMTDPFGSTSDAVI
# test_description: HEK281 cell-based assay (phospho-mu2 Western blot in transfected HEK293F cells)
# condition_info: 3 hours, phospho-mu2, given as IC50 range
pIC50: −log10 of the molar value.
reported_property: pIC50

Sample answers from the record:
>>> result("Cc1nccc2c1c(=O)n(C)c1cc(OC[C@@H](N)CC(C)C)c(-c3ccccn3)cc21 [Example 86]")
"7.00 to 8.00"
>>> result("Cn1c(=O)c2c(N)nccc2c2ccc(OCC(N)CCC(F)(F)F)cc21 (stereo not shown) [Example 120]")
"8.00 to 9.00"
>>> result("CC(C)C[C@H](N)COc1cc2c(cc1C(F)F)c1ccncc1c(=O)n2C [Example 121]")
"8.00 to 9.00"

Looking for the measured pIC50 of CC(C)C[C@H](N)COc1cc2[nH]c(=O)c3cnccc3c2cc1Cl [Example 142] , can you help? 8.00 to 9.00

* * *

# assay_system: GST-Xa-hAAK1 (Homo sapiens)
# Construct: made in house
# Sequence (Q2M2I8 whole entry): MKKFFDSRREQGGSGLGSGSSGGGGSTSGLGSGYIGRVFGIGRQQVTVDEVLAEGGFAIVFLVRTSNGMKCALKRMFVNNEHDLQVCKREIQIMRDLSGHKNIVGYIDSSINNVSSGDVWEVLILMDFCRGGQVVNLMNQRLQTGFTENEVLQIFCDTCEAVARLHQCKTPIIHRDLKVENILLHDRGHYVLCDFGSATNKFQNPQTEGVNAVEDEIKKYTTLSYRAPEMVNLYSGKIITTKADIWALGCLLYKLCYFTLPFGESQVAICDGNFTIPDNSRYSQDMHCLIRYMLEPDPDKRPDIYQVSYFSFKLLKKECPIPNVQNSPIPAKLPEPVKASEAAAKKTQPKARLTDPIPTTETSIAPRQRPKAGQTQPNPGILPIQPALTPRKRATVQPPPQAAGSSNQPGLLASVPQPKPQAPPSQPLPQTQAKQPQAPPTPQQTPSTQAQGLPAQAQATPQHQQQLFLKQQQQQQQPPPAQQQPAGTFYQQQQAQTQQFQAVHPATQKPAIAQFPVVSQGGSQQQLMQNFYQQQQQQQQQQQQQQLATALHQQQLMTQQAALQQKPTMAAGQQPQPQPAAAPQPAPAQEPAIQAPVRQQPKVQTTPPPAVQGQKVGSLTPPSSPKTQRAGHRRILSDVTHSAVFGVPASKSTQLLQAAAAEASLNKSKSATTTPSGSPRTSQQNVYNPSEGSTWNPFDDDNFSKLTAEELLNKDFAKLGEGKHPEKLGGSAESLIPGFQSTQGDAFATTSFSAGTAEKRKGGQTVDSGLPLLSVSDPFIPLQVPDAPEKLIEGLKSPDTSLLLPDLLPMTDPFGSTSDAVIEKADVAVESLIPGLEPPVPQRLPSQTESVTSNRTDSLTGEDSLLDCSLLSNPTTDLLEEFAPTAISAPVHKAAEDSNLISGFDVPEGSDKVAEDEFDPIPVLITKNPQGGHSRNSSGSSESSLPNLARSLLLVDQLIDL
# test_description: AAK1 kinase assay
# Format: biochemical
# condition_info: ATP 22 μM; given as IC50 range
reported_property: IC50

>>> result("Cn1c(=O)c2cnccc2c2cc(Cl)c(OCC(N)CC(F)(F)F)cc21 (centres unmarked)")
"1 to 10 nM"
>>> result("Cn1c(=O)c2cnccc2c2cc(Cl)c(OCC(N)CCC(F)(F)F)cc21 (centres unmarked) [Example 116]")
"10 to 100 nM"
>>> result("Cn1c(=O)c2cnccc2c2ccc(OCC(N)CC(F)(F)F)cc21 (single isomer, unassigned) [Example 136]")
"1 to 10 nM"
>>> result("Cc1nccc2c1c(=O)n(C)c1cc(OC[C@@H](N)CC(C)C)c(-c3ccccn3)cc21")
"10 to 100 nM"
>>> result("COCCn1c(=O)c2c(C)nccc2c2cc(Br)c(OC[C@@H](N)CC(C)C)cc21")
"10 to 100 nM"
>>> result("Cc1nccc2c1c(=O)[nH]c1cc(OC[C@@H](N)CC(C)C)c(Br)cc12")
"1 to 10 nM"
>>> result("Cc1nccc2c1c(=O)n(C)c1cc(OCCCC(C)C)ccc21")
"10 to 100 nM"
>>> result("Cc1nccc2c1c(=O)n(C)c1cc(OCC(N)CC(C)C(F)(F)F)ccc21 (single isomer, unassigned) [Example 88]")
"1 to 10 nM"
>>> result("CC(C)Cc1cc2c3ccncc3c(=O)n(C)c2cc1OC[C@@H](N)CC(C)C")
"10 to 100 nM"
>>> result("CC(C)NCC(O)COc1ccc2c3ccncc3c(=O)n(C)c2c1 (centres unmarked)")
"100 to 2000 nM"

Dear colleague, could you please provide IC50 for the compounds listed below?
1. Cc1nccc2c1c(=O)n(C)c1c(F)c(OC[C@@H](N)CC(C)C)ccc21
2. Cc1nccc2c1c(=O)n(C)c1cc(OCC(N)CC(F)(F)F)c(Br)cc21 (single isomer, unassigned) [Example 138]
3. CC(C)C[C@H](N)COc1ccc2c3c(F)cncc3c(=O)n(C)c2c1
4. Cn1c(=O)c2cnccc2c2cc(Br)c(OCC(N)CCC(F)(F)F)cc21 (centres unmarked)
5. CC(C)CC(C)COc1ccc2c3ccncc3c(=O)n(C)c2c1 (centres unmarked) [Example 158]
6. Cc1nccc2c1c(=O)n(C)c1cc(OC[C@@H](O)CC(C)C)ccc21
7. Cc1nccc2c1c(=O)n(C)c1cc(OCC(N)CCC(F)(F)F)c(Cl)cc21 (centres unmarked)
8. Cc1nccc2c1c(=O)n(C)c1cc(OCC(N)CCC(F)(F)F)ccc21 (centres unmarked)

100 to 2000 nM
1 to 10 nM
10 to 100 nM
1 to 10 nM
10 to 100 nM
10 to 100 nM
< 1 nM
10 to 100 nM

Dear colleague, could you please provide IC50 for the compounds listed below?
1. COc1nccc2c1c(=O)n(C)c1cc(OC[C@@H](N)CC(C)C)ccc21
2. CNC(=O)Nc1nccc2c1c(=O)n(C)c1cc(OC[C@@H](N)CC(C)C)c(F)cc21
3. CC(C)C[C@H](N)COc1cc2[nH]c(=O)c3cnccc3c2cc1Br
4. CC(C)C[C@H](N)COc1cc2c(cc1C#N)c1ccncc1c(=O)n2C
5. COc1cncc2c(=O)n(C)c3cc(OC[C@@H](N)CC(C)C)ccc3c12

["100 to 2000 nM", "10 to 100 nM", "1 to 10 nM", "1 to 10 nM", "100 to 2000 nM"]

Data provenance is patent US20160333006A1.
